# Test system: Salmonella typhimurium
# test_description: Antimicrobial activity against Salmonella typhimurium ATCC 19430 incubated for 18 hrs by agar dilution method
# Assay type: functional, Salmonella enterica subsp. enterica serovar Typhimurium
# experimental_parameters: Salmonella enterica, ATCC 19430, 18 h
quantity_name: log10 MIC (log10 of the value in µM)
log10 MIC, µM

# input Any idea what log10 MIC was measured for CC[C@H](C)[C@H](NC(=O)c1cn(CC)c2cc3c(cc2c1=O)OCO3)C(=O)N1CCN(c2cc3c(cc2F)c(=O)c(C(=O)O)cn3C2CC2)CC1 ?
# output 2.96

# input Any idea what log10 MIC was measured for CCn1cc(C(=O)O)c(=O)c2cc(F)c(N3CCN(C(=O)CNC(=O)c4cn(CC)c5nc(C)ccc5c4=O)CC3)cc21 ?
# output 3.33

# input Any idea what log10 MIC was measured for CCn1cc(C(=O)N[C@@H](Cc2ccccc2)C(=O)N2CCN(c3cc4c(cc3F)c(=O)c(C(=O)O)cn4C3CC3)CC2)c(=O)c2cc3c(cc21)OCO3 ?
# output 2.64

# input Any idea what log10 MIC was measured for CCn1cc(C(=O)NCCCC(=O)N2CCN(c3cc4c(cc3F)c(=O)c(C(=O)O)cn4C3CC3)CC2)c(=O)c2cc3c(cc21)OCO3 ?
# output 1.77

# input Any idea what log10 MIC was measured for CC[C@H](C)[C@H](NC(=O)c1cn(CC)c2cc3c(cc2c1=O)OCO3)C(=O)N1CCN(c2cc3c(cc2F)c(=O)c(C(=O)O)cn3CC)CC1 ?
# output 3.27

# input Any idea what log10 MIC was measured for CCn1cc(C(=O)O)c(=O)c2cc3c(cc21)OCO3 ?
# output 0.88

# input Any idea what log10 MIC was measured for CCn1cc(C(=O)N[C@@H](Cc2c[nH]c3ccccc23)C(=O)N2CCN(c3cc4c(cc3F)c(=O)c(C(=O)O)cn4C3CC3)CC2)c(=O)c2cc3c(cc21)OCO3 ?
# output 1.41

# input Any idea what log10 MIC was measured for CCn1cc(C(=O)O)c(=O)c2cc(F)c(N3CCN(C(=O)CCNC(=O)c4cn(CC)c5nc(C)ccc5c4=O)CC3)cc21 ?
# output 3.32

# input Any idea what log10 MIC was measured for CCn1cc(C(=O)O)c(=O)c2cc(F)c(N3CCN(C(=O)[C@H](Cc4c[nH]c5ccccc45)NC(=O)c4cn(CC)c5nc(C)ccc5c4=O)CC3)cc21 ?
# output 2.94

# input Any idea what log10 MIC was measured for CC[C@H](C)[C@H](NC(=O)c1cn(CC)c2nc(C)ccc2c1=O)C(=O)N1CCN(c2cc3c(cc2F)c(=O)c(C(=O)O)cn3CC)CC1 ?
# output 3.29

# input Any idea what log10 MIC was measured for CCn1cc(C(=O)O)c(=O)c2cc(F)c(N3CCNCC3)cc21 ?
# output 1.01

###

# Test system: Pseudomonas aeruginosa
# test_description: Antimicrobial activity against Pseudomonas aeruginosa ATCC 27853 incubated for 18 hrs by agar dilution method
# Assay type: functional
# experimental_parameters: ATCC 27853, 18 h
quantity_name: log10 of MIC (log10 of the value in µM)
log10 MIC, µM

# input Any idea what log10 of MIC was measured for CCn1cc(C(=O)O)c(=O)c2cc(F)c(N3CCN(C(=O)CCCNC(=O)c4cn(CC)c5nc(C)ccc5c4=O)CC3)cc21 ?
# output 2.70

# input Any idea what log10 of MIC was measured for CCn1cc(C(=O)NCCC(=O)N2CCN(c3cc4c(cc3F)c(=O)c(C(=O)O)cn4C3CC3)CC2)c(=O)c2ccc(C)nc21 ?
# output 3.31

# input Any idea what log10 of MIC was measured for CC[C@H](C)[C@H](NC(=O)c1cn(CC)c2nc(C)ccc2c1=O)C(=O)N1CCN(c2cc3c(cc2F)c(=O)c(C(=O)O)cn3CC)CC1 ?
# output 3.29

# input Any idea what log10 of MIC was measured for CCn1cc(C(=O)N[C@@H](Cc2ccccc2)C(=O)N2CCN(c3cc4c(cc3F)c(=O)c(C(=O)O)cn4C3CC3)CC2)c(=O)c2ccc(C)nc21 ?
# output 3.26

# input Any idea what log10 of MIC was measured for CCn1cc(C(=O)N[C@@H](Cc2c[nH]c3ccccc23)C(=O)N2CCN(c3cc4c(cc3F)c(=O)c(C(=O)O)cn4C3CC3)CC2)c(=O)c2ccc(C)nc21 ?
# output 3.23

# input Any idea what log10 of MIC was measured for CCn1cc(C(=O)O)c(=O)c2cc(F)c(N3CCN(C(=O)[C@H](Cc4c[nH]c5ccccc45)NC(=O)c4cn(CC)c5cc6c(cc5c4=O)OCO6)CC3)cc21 ?
# output 3.22

# input Any idea what log10 of MIC was measured for CCn1cc(C(=O)N[C@@H](Cc2c[nH]c3ccccc23)C(=O)N2CCN(c3cc4c(cc3F)c(=O)c(C(=O)O)cn4C3CC3)CC2)c(=O)c2cc3c(cc21)OCO3 ?
# output 2.61

# input Any idea what log10 of MIC was measured for CCn1cc(C(=O)O)c(=O)c2cc(F)c(N3CCN(C(=O)[C@H](Cc4c[nH]c5ccccc45)NC(=O)c4cn(CC)c5nc(C)ccc5c4=O)CC3)cc21 ?
# output 3.24

# input Any idea what log10 of MIC was measured for CCn1cc(C(=O)NCCC(=O)N2CCN(c3cc4c(cc3F)c(=O)c(C(=O)O)cn4C3CC3)CC2)c(=O)c2cc3c(cc21)OCO3 ?
# output 3.29

# input Any idea what log10 of MIC was measured for CCn1cc(C(=O)O)c(=O)c2cc(F)c(N3CCNCC3)cc21 [NORFLOXACIN] ?
# output 2.53

# input Any idea what log10 of MIC was measured for CC[C@H](C)[C@H](NC(=O)c1cn(CC)c2cc3c(cc2c1=O)OCO3)C(=O)N1CCN(c2cc3c(cc2F)c(=O)c(C(=O)O)cn3CC)CC1 ?
# output 2.66

# input Any idea what log10 of MIC was measured for CCn1cc(C(=O)O)c(=O)c2cc(F)c(N3CCN(C(=O)CCNC(=O)c4cn(CC)c5nc(C)ccc5c4=O)CC3)cc21 ?
# output 3.32

# input Any idea what log10 of MIC was measured for CCn1cc(C(=O)O)c(=O)c2ccc(C)nc21 [NALIDIXIC ACID] ?
# output 1.16
